# experimental-target: NPBWR1
# method: pooled miR-30 sensor sort-seq; sequence = guide strand; note: reference of the scale not given here
# run-conditions: shRNA
I'd appreciate it if you could supply sensor-assay potency score (higher = more potent) values for the items below.
# respond with the number and nothing more

# lookup: sensor-assay potency score (higher = more potent) of AACTGGTACAGCCACCGCCAGC
-1.89

# lookup: sensor-assay potency score (higher = more potent) of TAGAGGAAGGGGTTGAGGCAGC
0.0364

# lookup: sensor-assay potency score (higher = more potent) of TTGTACTGGTCGATAGCCACGA
-0.0597

# lookup: sensor-assay potency score (higher = more potent) of TTGGAGCAGCTCAGCGCCGGGT
-1.46

# lookup: sensor-assay potency score (higher = more potent) of TGATGAAGTAGGAGATAGCGAT
-0.908

# lookup: sensor-assay potency score (higher = more potent) of TGTACTGGTCGATAGCCACGAT
-0.544

# lookup: sensor-assay potency score (higher = more potent) of TTGATGGGCAGCACCAGCGTGA
-0.969

# lookup: sensor-assay potency score (higher = more potent) of TAGAGGACACAGATGGTGGACA
-0.757

# lookup: sensor-assay potency score (higher = more potent) of TGTTGTACTGGTCGATAGCCAC
-0.835

# lookup: sensor-assay potency score (higher = more potent) of ATCACCGCGTAGACAACTGGTA
-0.96

###

# experimental-target: TAS2R31
# method: pooled miR-30 sensor sort-seq; sequence = guide strand
# run-conditions: shRNA
I'd appreciate it if you could supply sensor-assay potency score (higher = more potent) values for the items below.
# respond with the number and nothing more

# lookup: sensor-assay potency score (higher = more potent) of TACAGTCGCATCTGAAAGGTAC
-0.71

# lookup: sensor-assay potency score (higher = more potent) of TTGATCTTCCAAGTCAAGTTTC
-0.849

# lookup: sensor-assay potency score (higher = more potent) of TTAACAGCAAAAAACATAGCAG
-0.409

# lookup: sensor-assay potency score (higher = more potent) of AATAGAACCACTACCACACTGG
0.475

# lookup: sensor-assay potency score (higher = more potent) of TTACAGTCGCATCTGAAAGGTA
-0.265

# lookup: sensor-assay potency score (higher = more potent) of TAGAACCACTACCACACTGGAA
-1.01

###

# experimental-target: CHCHD8
# method: pooled miR-30 sensor sort-seq; sequence = guide strand
# run-conditions: shRNA
Values of sensor-assay potency score (higher = more potent) greater than or equal to -1 map to true (1); values below map to false (0).

Textbook exercise: given the entry TTGCCGCCAGTCCTGGTGCTGG , state whether its sensor-assay potency score (higher = more potent) is greater than or equal to -1.
false (0)

Textbook exercise: given the entry TCATCGTCTTTCTTCACCCGTT , state whether its sensor-assay potency score (higher = more potent) is greater than or equal to -1.
true (1)

Textbook exercise: given the entry ATCGTCTTTCTTCACCCGTTGG , state whether its sensor-assay potency score (higher = more potent) is greater than or equal to -1.
true (1)

Textbook exercise: given the entry TCTTCCTCTATAATCTTGCTGG , state whether its sensor-assay potency score (higher = more potent) is greater than or equal to -1.
true (1)

Textbook exercise: given the entry TTCCTCTATAATCTTGCTGGGT , state whether its sensor-assay potency score (higher = more potent) is greater than or equal to -1.
false (0)

Textbook exercise: given the entry TTGTTCTTGCCTCCTCTGCAGC , state whether its sensor-assay potency score (higher = more potent) is greater than or equal to -1.
false (0)

Textbook exercise: given the entry TTCTTGCCTCCTCTGCAGCTCC , state whether its sensor-assay potency score (higher = more potent) is greater than or equal to -1.
false (0)

###

# experimental-target: PSD4
# method: pooled miR-30 sensor sort-seq; sequence = guide strand
# run-conditions: shRNA
I'd appreciate it if you could supply sensor-assay potency score (higher = more potent) values for the items below.
# respond with the number and nothing more

# lookup: sensor-assay potency score (higher = more potent) of TGCACGTAGGTCTCGTAGCGGG
-1.25

# lookup: sensor-assay potency score (higher = more potent) of TTGCGCTTCACCTTGGCCGTGG
0.0843

# lookup: sensor-assay potency score (higher = more potent) of TTTCCCTTGGGCACTCTCCTGG
-0.299

# lookup: sensor-assay potency score (higher = more potent) of TTAAGCAGCATGATTGCACATG
-0.729

# lookup: sensor-assay potency score (higher = more potent) of TCACTCTTTACTTCCTCGCCTG
-0.455

# lookup: sensor-assay potency score (higher = more potent) of AAGGTGTGGAACATCTTCCAGC
-0.755

# lookup: sensor-assay potency score (higher = more potent) of TAAGGTGTGGAACATCTTCCAG
-1.04

# lookup: sensor-assay potency score (higher = more potent) of TTTTCTTCAAGGAACTTGGCTG
-0.084

###

# experimental-target: RFX3
# method: pooled miR-30 sensor sort-seq; sequence = guide strand
# run-conditions: shRNA
I'd appreciate it if you could supply sensor-assay potency score (higher = more potent) values for the items below.
# respond with the number and nothing more

# lookup: sensor-assay potency score (higher = more potent) of TTCTAGTCTCTGAACCATGTTG
-0.714

# lookup: sensor-assay potency score (higher = more potent) of TAGAATTTGACAACAGTCGACC
-0.732

# lookup: sensor-assay potency score (higher = more potent) of AATTTGACAACAGTCGACCTTC
0.318

# lookup: sensor-assay potency score (higher = more potent) of TACACCAAGACTAACAATCAAC
-1.04

# lookup: sensor-assay potency score (higher = more potent) of TAAATTTTCAACTTAAGCCCAA
0.019

# lookup: sensor-assay potency score (higher = more potent) of TTGTTGTACTGGTACTTGCTGT
-0.28

# lookup: sensor-assay potency score (higher = more potent) of TAAATCACCAAACTCGCCCATG
-0.686

###

# experimental-target: ZBTB24
# method: pooled miR-30 sensor sort-seq; sequence = guide strand
# run-conditions: shRNA
Values of sensor-assay potency score (higher = more potent) greater than or equal to -1 map to true (1); values below map to false (0).

Textbook exercise: given the entry TTGTACTTAAAGACCTTGCCAC , state whether its sensor-assay potency score (higher = more potent) is greater than or equal to -1.
true (1)

Textbook exercise: given the entry TTAAGAACTGAGCAGTAGCCAG , state whether its sensor-assay potency score (higher = more potent) is greater than or equal to -1.
false (0)

Textbook exercise: given the entry TTAAATTCTGCAGTTGCTCTGG , state whether its sensor-assay potency score (higher = more potent) is greater than or equal to -1.
true (1)

Textbook exercise: given the entry TTGGAAGTCTGTGTAAGCCTTT , state whether its sensor-assay potency score (higher = more potent) is greater than or equal to -1.
true (1)

###

# experimental-target: PYROXD1
# method: pooled miR-30 sensor sort-seq; sequence = guide strand
# run-conditions: shRNA
Values of sensor-assay potency score (higher = more potent) greater than or equal to -0.9 map to Fulfilled; values below map to Not fulfilled.

Textbook exercise: given the entry TTTAAAGTAAAATACAACCGAT , state whether its sensor-assay potency score (higher = more potent) is greater than or equal to -0.9.
Not fulfilled

Textbook exercise: given the entry TTAATTCATGATCTGAACCTAA , state whether its sensor-assay potency score (higher = more potent) is greater than or equal to -0.9.
Fulfilled

Textbook exercise: given the entry TAACTCAATACAGTCATTCATT , state whether its sensor-assay potency score (higher = more potent) is greater than or equal to -0.9.
Fulfilled

Textbook exercise: given the entry TGATTGTTCTTCAACATCGAAT , state whether its sensor-assay potency score (higher = more potent) is greater than or equal to -0.9.
Not fulfilled

###

# experimental-target: IFNA17
# method: pooled miR-30 sensor sort-seq; sequence = guide strand
# run-conditions: shRNA
Values of sensor-assay potency score (higher = more potent) greater than or equal to -0.7 map to yes (1); values below map to no (0).

Textbook exercise: given the entry TCTGAGGCAGATCACAGCCTAG , state whether its sensor-assay potency score (higher = more potent) is greater than or equal to -0.7.
no (0)

Textbook exercise: given the entry TATCACACATGCTTCCAGGTTA , state whether its sensor-assay potency score (higher = more potent) is greater than or equal to -0.7.
yes (1)

Textbook exercise: given the entry TATTTTTTGCAAGTTTGTTGAA , state whether its sensor-assay potency score (higher = more potent) is greater than or equal to -0.7.
yes (1)

Textbook exercise: given the entry TCTTCTGGAACTGGTTGCCATC , state whether its sensor-assay potency score (higher = more potent) is greater than or equal to -0.7.
no (0)

Textbook exercise: given the entry TCTTCCATCCCAACCTCCTGTA , state whether its sensor-assay potency score (higher = more potent) is greater than or equal to -0.7.
yes (1)

Textbook exercise: given the entry TTCTCTGTTAGATAAAGAGTGA , state whether its sensor-assay potency score (higher = more potent) is greater than or equal to -0.7.
yes (1)

Textbook exercise: given the entry TTCCAGGTTATTCAGTTGCTGG , state whether its sensor-assay potency score (higher = more potent) is greater than or equal to -0.7.
no (0)

Textbook exercise: given the entry TTGCTGGTAAAGTTCAGTGGAA , state whether its sensor-assay potency score (higher = more potent) is greater than or equal to -0.7.
no (0)

Textbook exercise: given the entry TGTATTTCTTCTCTGTTAGATA , state whether its sensor-assay potency score (higher = more potent) is greater than or equal to -0.7.
no (0)
